Target: human β2 adrenergic receptor (Homo sapiens, UniProt P07550)
Sequence (P07550 whole entry): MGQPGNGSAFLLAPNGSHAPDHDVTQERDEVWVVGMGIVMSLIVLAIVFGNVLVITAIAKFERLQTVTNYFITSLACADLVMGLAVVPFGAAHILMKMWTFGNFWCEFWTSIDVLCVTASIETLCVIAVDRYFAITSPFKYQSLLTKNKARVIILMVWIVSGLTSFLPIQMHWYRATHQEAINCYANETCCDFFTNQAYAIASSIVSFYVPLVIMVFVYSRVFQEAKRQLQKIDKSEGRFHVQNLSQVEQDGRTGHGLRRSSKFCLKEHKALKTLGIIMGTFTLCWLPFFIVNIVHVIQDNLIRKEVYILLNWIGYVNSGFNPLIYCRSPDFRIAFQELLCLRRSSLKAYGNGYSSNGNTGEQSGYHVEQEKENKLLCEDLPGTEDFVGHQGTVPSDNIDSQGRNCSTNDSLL
Experiment: Whole-cell cAMP Flashplate assay using CHO-K1 cells stably expressing human β2 adrenergic receptor
Details: cAMP production
pEC50: −log10 of the molar value. Counter-ions that a name gives are not always drawn.
Rule: Criterion met for pEC50 not less than 9, Criterion not met for anything less.

COc1cc(NC(=O)CCCCc2ccc(-c3ccccc3)c(NC(=O)OC3CC[N+](C)(C)CC3)c2)c(Cl)cc1CNC[C@H](O)c1ccc(O)c2[nH]c(=O)ccc12 [Example 51, trifluoroacetate] = Criterion met

Ask: Dear colleague, could you confirm whether "C[N+]1(C)CCC(OC(=O)Nc2cc(CNC(=O)COc3ccc(CNC[C@H](O)c4ccc(O)c5[nH]c(=O)ccc45)cc3)ccc2-c2ccccc2)CC1" has pEC50 at or above 9?
Reply: Criterion not met

Ask: Dear colleague, could you confirm whether C[N+]1(C)[C@@H]2CC(OC(=O)Nc3cc(CCC(=O)Nc4ccc(CCCNC[C@H](O)c5ccc(O)c6[nH]c(=O)ccc56)cc4)ccc3-c3ccccc3)C[C@H]1[C@@H]1O[C@@H]12 (some centres unmarked) has pEC50 at or above 9?
Reply: Criterion not met

Ask: Dear colleague, could you confirm whether C[N+]1(C)CCC(OC(=O)Nc2cc(CCCC(=O)NCc3ccc(CNC[C@H](O)c4ccc(O)c5[nH]c(=O)ccc45)cc3)ccc2-c2ccccc2)CC1 [Example 66, trifluoroacetate] has pEC50 at or above 9?
Reply: Criterion not met

Ask: Dear colleague, could you confirm whether C[N+]1(C)CCC(OC(=O)Nc2cc(CCCC(=O)Nc3ccc(CNC[C@H](O)c4ccc(O)c5[nH]c(=O)ccc45)c(C(F)(F)F)c3)ccc2-c2ccccc2)CC1 [Example 31, trifluoroacetate] has pEC50 at or above 9?
Reply: Criterion not met

Ask: Dear colleague, could you confirm whether C[N+]1(C)CCC(OC(=O)Nc2cc(CCC(=O)Nc3ccc(CNC[C@H](O)c4ccc(O)c5[nH]c(=O)ccc45)cc3Cl)ccc2-c2ccccc2)CC1 [Example 9, trifluoroacetate] has pEC50 at or above 9?
Reply: Criterion not met

Ask: Dear colleague, could you confirm whether "COc1cc(NC(=O)CCCc2ccc(NC(=O)O[C@@H]3C[C@@H]4[C@H]5O[C@H]5[C@H](C3)[N+]4(C)C)c(-c3ccccc3)c2)c(Br)cc1CNC[C@H](O)c1ccc(O)c2[nH]c(=O)ccc12" has pEC50 at or above 9?
Reply: Criterion met

Ask: Dear colleague, could you confirm whether "COc1cc(CNC[C@H](O)c2ccc(O)c3[nH]c(=O)ccc23)ccc1NC(=O)CCc1ccc(-c2ccccc2)c(NC(=O)O[C@@H]2C[C@@H]3[C@H]4O[C@H]4[C@H](C2)[N+]3(C)C)c1" has pEC50 at or above 9?
Reply: Criterion not met

Ask: Dear colleague, could you confirm whether "C[N+]1(C)CCC(OC(=O)Nc2cc(CCNC(=O)c3ccc(CNC[C@H](O)c4ccc(O)c5[nH]c(=O)ccc45)cc3)ccc2-c2ccccc2)CC1" has pEC50 at or above 9?
Reply: Criterion not met
